# Study system: p300 HAT domain (residues 1287-1666) (Homo sapiens (Human), UniProt Q09472)
# Sequence (Q09472 1287-1666): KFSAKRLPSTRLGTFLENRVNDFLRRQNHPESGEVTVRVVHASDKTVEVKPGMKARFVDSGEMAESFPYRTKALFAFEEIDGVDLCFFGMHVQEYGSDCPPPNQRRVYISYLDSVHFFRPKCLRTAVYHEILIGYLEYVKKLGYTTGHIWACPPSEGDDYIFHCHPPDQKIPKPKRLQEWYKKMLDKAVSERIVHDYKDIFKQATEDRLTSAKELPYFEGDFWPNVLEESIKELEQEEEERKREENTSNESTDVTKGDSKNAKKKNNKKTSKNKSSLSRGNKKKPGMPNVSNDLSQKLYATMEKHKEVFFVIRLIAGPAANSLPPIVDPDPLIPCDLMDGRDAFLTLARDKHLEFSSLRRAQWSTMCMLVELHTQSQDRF
pIC50: −log10 of the molar value.
Quantity kind: pIC50

Below, each entry is followed by its recorded pIC50 result.
> print(dat)
                                   molecule  measured.result
1  CC(CNC(C(=O)Nc1ccc(-c2cnn(C)n2)cn1)c1ccccc1)c1ccc(C#N)cc1 (single isomer, unassigned) [98 Isomer 4]             5.84
2  Cn1cc(-c2ccc(NC(=O)C(NCCc3ccc(C#N)cc3)c3ccccc3)c(Cl)c2)cn1 (single isomer, unassigned) [26 Isomer 1]             7.05
3  Cc1cnn(-c2ccc(NC(=O)C(NCC(C)c3ccc(C#N)cc3)c3ccccc3)nc2)c1 (single isomer, unassigned) [62 Isomer 4]             7.28
4  CC(CNC(C(=O)Nc1ccc(-c2cnn(C(C)(C)C)c2)cn1)c1ccccc1)c1ccc(C#N)cc1 (single isomer, unassigned) [54 Isomer 2]             7.62
5  CN1CCN(c2ccc(NC(=O)C(NCCc3ccc(C#N)cc3)c3ccccc3)cn2)CC1 (single isomer, unassigned) [36 Isomer 1]             5.49
6  Cc1nn(C)c(C)c1-c1ccc(NC(=O)C(NC[C@@H](C)c2ccc(C#N)cc2)c2ccccc2)nc1 (single isomer, unassigned) [130 Isomer 2]             7.85
7  CN1CCN(c2ccc(NC(=O)C(NCCc3ccc(C#N)cc3)c3ccccc3)nc2)CC1=O (single isomer, unassigned) [44 Isomer 2]             7.38
8  CC(CNC(C(=O)Nc1ccc(-c2cnn(C)n2)cn1)c1ccccc1)c1ccc(C(F)(F)F)cc1 (single isomer, unassigned) [99 Isomer 2]             5.99

(P) CC(CNC(C(=O)Nc1ccc(-c2cnn(C(C)(C)C#N)c2)cn1)c1ccccc1)c1ccc(C#N)cc1 (single isomer, unassigned) [47 Isomer 1]
(Q) Cc1nnc2n1CCN(c1ccc(NC(=O)C(NCCc3ccc(C#N)cc3)c3ccccc3)nc1)C2 (single isomer, unassigned) [60 Isomer 1]
q: Between item P and item Q , which reported pIC50 is smaller? Let me know the label of the one you choose.
a: P

(P) Cc1cc(C#N)nn1CCNC(C(=O)Nc1ccc(-c2cnn(C)c2)cn1)c1ccccc1 (single isomer, unassigned) [145 Isomer 1]
(Q) Cn1cc(-c2ccnc(NC(=O)C(NCCc3ccc(C#N)cc3)c3ccccc3)c2)cn1 (single isomer, unassigned) [122 Isomer 2]
(R) CC1CN(c2ccc(NC(=O)C(NC[C@@H](C)c3ccc(C#N)cc3)c3ccccc3)nc2)CC(=O)N1C (single isomer, unassigned) [124 Isomer 1]
(S) CC(CNC(C(=O)Nc1ccc(-c2cnn(C)c2)cc1)c1ccccc1)c1ccc(Cl)cc1 (single isomer, unassigned) [2 Isomer 2]
(T) Cc1ccn(-c2ccc(NC(=O)C(NCC(C)c3ccc(C#N)cc3)c3ccccc3)nc2)n1 (single isomer, unassigned) [61 Isomer 3]
q: Rank order required: pIC50, descending. # the answer lists labels in the order requested
a: R, T, S, P, Q

* * *

# Study system: p300 HAT domain (residues 1287-1666) (Homo sapiens (Human))
# Procedure text: p300 HAT SPA assay (scintillation proximity assay, acetylation of biotinylated H3(1-21) peptide)
# Assay type: biochemical
# Stated conditions: average of at least 2 replicate titrations
pIC50: −log10 of the molar value.
Quantity kind: pIC50

q: Field request: pIC50 | item: Cn1cc(-c2ccc(NC(=O)C(NCCc3ccc(C#N)cc3)c3ccc(C(F)(F)F)cc3)nc2)cn1 (single isomer, unassigned) [120 Isomer 2]
a: < 5.70

q: Field request: pIC50 | item: COc1cccc(C(NCCc2ccc(C#N)cc2)C(=O)Nc2ccc(-c3cnn(C)c3)cn2)c1 (single isomer, unassigned) [70 Isomer 1]
a: < 5.70

q: Field request: pIC50 | item: Cn1cc(-c2ccc(NC(=O)C(NCCc3ccc(C#N)cc3)c3ccccc3)nn2)cn1 (single isomer, unassigned) [57 Isomer 1]
a: 6.09

The origin of these recorded values is patent US11274090B2.
